// reported IC50 for each item listed
- Tested on: lung cancer A549
- Procedure text: WST-1 cell proliferation assay, A549
- Assay type: cell-based, human
- Experimental parameters: Homo sapiens; A549, WST-1, 72 h; read-out: Anticancer Activity IC50 A549
Measurement name: IC50 (µM)

[
  {
    "Entry smiles": "Clc1ccc(Cn2cc(CN3c4cccnc4Sc4cccnc43)nn2)cc1",
    "Value modifier": "=",
    "Recorded measurement": 0.25
  },
  {
    "Entry smiles": "Clc1ccc(Cn2cc(CN3c4cnccc4Sc4cccnc43)nn2)cc1",
    "Value modifier": "=",
    "Recorded measurement": 1.82
  },
  {
    "Entry smiles": "c1ccc(Cn2cc(CN3c4ccncc4Sc4ccncc43)nn2)cc1",
    "Value modifier": "=",
    "Recorded measurement": 0.26
  },
  {
    "Entry smiles": "c1ccc(Cn2cc(CN3c4cnccc4Sc4cccnc43)nn2)cc1",
    "Value modifier": "=",
    "Recorded measurement": 77.4
  },
  {
    "Entry smiles": "c1ccc(SCn2cc(CN3c4ccncc4Sc4ncccc43)nn2)cc1",
    "Value modifier": ">",
    "Recorded measurement": 100
  },
  {
    "Entry smiles": "c1ccc(Cn2cc(CN3c4ccncc4Sc4ncccc43)nn2)cc1",
    "Value modifier": "=",
    "Recorded measurement": 60.6
  },
  {
    "Entry smiles": "Fc1ccc(Cn2cc(CN3c4cnccc4Sc4cccnc43)nn2)cc1",
    "Value modifier": "=",
    "Recorded measurement": 60.2
  },
  {
    "Entry smiles": "N#Cc1ccc(Cn2cc(CN3c4ccncc4Sc4ccncc43)nn2)cc1",
    "Value modifier": "=",
    "Recorded measurement": 30.1
  },
  {
    "Entry smiles": "N#Cc1ccc(Cn2cc(CN3c4cccnc4Sc4cccnc43)nn2)cc1",
    "Value modifier": "=",
    "Recorded measurement": 1.79
  },
  {
    "Entry smiles": "N#Cc1ccc(Cn2cc(CN3c4ccncc4Sc4ncccc43)nn2)cc1",
    "Value modifier": "=",
    "Recorded measurement": 42.7
  }
]

* * *

- System: lung cancer A549
- Procedure text: WST-1 cell proliferation assay, A549
- Type: cell-based, human
- Experimental parameters: Homo sapiens; A549, WST-1, 72 h; read-out: Anticancer Activity IC50 A549
Measurement name: log10(IC50) (log10 of the value in µM)

[
  {
    "Entry smiles": "Clc1ccc(Cn2cc(CN3c4ccncc4Sc4ccncc43)nn2)cc1",
    "Study system": "lung cancer A549",
    "Recorded measurement": 1.25
  },
  {
    "Entry smiles": "Fc1ccc(Cn2cc(CN3c4ccncc4Sc4ccncc43)nn2)cc1",
    "Study system": "lung cancer A549",
    "Recorded measurement": 1.43
  },
  {
    "Entry smiles": "Fc1ccc(Cn2cc(CN3c4cccnc4Sc4cccnc43)nn2)cc1",
    "Study system": "lung cancer A549",
    "Recorded measurement": 1.46
  },
  {
    "Entry smiles": "N#Cc1ccc(Cn2cc(CN3c4cnccc4Sc4cccnc43)nn2)cc1",
    "Study system": "lung cancer A549",
    "Recorded measurement": 1.80
  },
  {
    "Entry smiles": "c1ccc(SCn2cc(CN3c4ccncc4Sc4ccncc43)nn2)cc1",
    "Study system": "lung cancer A549",
    "Recorded measurement": -0.19
  },
  {
    "Entry smiles": "c1ccc(SCn2cc(CN3c4cnccc4Sc4cccnc43)nn2)cc1",
    "Study system": "lung cancer A549",
    "Recorded measurement": 1.67
  },
  {
    "Entry smiles": "Fc1ccc(Cn2cc(CN3c4ccncc4Sc4ncccc43)nn2)cc1",
    "Study system": "lung cancer A549",
    "Recorded measurement": -0.60
  },
  {
    "Entry smiles": "Clc1ccc(Cn2cc(CN3c4ccncc4Sc4ncccc43)nn2)cc1",
    "Study system": "lung cancer A549",
    "Recorded measurement": 1.73
  }
]
